molecular target: HLA-A2.1 molecules expressed by 174CEM.T2 cells (human); assay: T2 HLA-A2.1 stabilisation, flow cytometry (BB7.2), peptide 200 ug/ml
For each record, write down the corresponding FI (Fluorescence Index).
Answers are plain numbers.

Inquiry: Query: FI (Fluorescence Index); subject: PLCDLLIRC (modifications not checked) [… (residues 102-110 of HPV16 protein E6)]
Reply text: 2.1

Inquiry: Query: FI (Fluorescence Index); subject: TLEDLLMGT (modifications not checked) [… (residues 78-86 of HPV16 protein E7)]
Reply text: 1.8

Inquiry: Query: FI (Fluorescence Index); subject: MLDLQPETT (modifications not checked) [… (residues 12-20 of HPV16 protein E7)]
Reply text: 2.3

--- query ---
Inquiry: Query: FI (Fluorescence Index); subject: KISEYRHYC (modifications not checked) [… (residues 79-87 of HPV16 protein E6)]
Reply text: 2.2
